Biological target: PARP-1 (Homo sapiens)
Sequence (P09874 whole entry): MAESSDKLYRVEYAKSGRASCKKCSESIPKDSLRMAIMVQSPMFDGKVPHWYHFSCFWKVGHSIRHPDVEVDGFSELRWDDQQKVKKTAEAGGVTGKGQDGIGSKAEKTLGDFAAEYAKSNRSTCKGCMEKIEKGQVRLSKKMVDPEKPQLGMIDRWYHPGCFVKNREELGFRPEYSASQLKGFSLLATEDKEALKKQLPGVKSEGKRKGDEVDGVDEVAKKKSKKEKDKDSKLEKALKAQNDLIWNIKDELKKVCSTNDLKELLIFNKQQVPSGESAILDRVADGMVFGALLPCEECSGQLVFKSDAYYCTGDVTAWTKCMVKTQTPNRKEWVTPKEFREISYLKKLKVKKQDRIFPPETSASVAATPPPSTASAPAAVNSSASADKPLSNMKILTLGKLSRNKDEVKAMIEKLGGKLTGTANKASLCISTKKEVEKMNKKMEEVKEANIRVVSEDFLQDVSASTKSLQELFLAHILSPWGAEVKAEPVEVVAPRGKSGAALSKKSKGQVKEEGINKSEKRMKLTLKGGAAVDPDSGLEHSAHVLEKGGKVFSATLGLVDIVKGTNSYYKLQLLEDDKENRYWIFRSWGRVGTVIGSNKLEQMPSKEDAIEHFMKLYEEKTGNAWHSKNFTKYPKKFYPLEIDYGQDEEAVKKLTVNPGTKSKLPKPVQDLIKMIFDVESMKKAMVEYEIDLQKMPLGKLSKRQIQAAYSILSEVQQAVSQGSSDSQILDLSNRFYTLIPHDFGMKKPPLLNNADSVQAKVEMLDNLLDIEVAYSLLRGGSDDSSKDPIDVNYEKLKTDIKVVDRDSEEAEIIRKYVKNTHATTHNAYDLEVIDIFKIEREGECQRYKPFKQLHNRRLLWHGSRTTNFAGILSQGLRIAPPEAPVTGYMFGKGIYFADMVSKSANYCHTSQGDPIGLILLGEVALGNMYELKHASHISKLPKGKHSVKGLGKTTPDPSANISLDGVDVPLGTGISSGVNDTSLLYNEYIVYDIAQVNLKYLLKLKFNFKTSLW
Assay: In vitro PARP-1 inhibitory assay
Format: biochemical
Conditions: IC50 (nM), in vitro inhibitory activity against PARP-1; mean ± S.E.M., n = 3
measured.property: IC50 (nM)

In the examples that follow, each entry is paired with its recorded IC50.
• O=c1c2ccccc2nc(NN=Cc2ccc(O)cc2)n1-c1ccccc1 [Compound 13b] = 44.2
• CC(=O)c1ccc(NC(=O)Cn2c(=S)n(-c3ccccc3)c(=O)c3ccccc32)cc1 [Compound 6b] = 64.7
• COc1ccc(-c2cc(-c3ccc(NC(=O)CSc4nc5ccccc5c(=O)n4-c4ccccc4)cc3)nc(N)c2C#N)cc1 [Compound 8a] = 32.5
• COC(=O)c1ccc(NC(=O)CNNc2nc3ccccc3c(=O)n2-c2ccccc2)cc1 [Compound 12a] = 39.1
• COC(=O)c1ccc(NC(=O)Cn2c(=S)n(-c3ccccc3)c(=O)c3ccccc32)cc1 [Compound 6a] = 56

P: COc1ccccc1C=NNc1nc2ccccc2c(=O)n1-c1ccccc1 [Compound 13c]
Q: NS(=O)(=O)c1ccc(NC(=O)CNNc2nc3ccccc3c(=O)n2-c2ccccc2)cc1 [Compound 12c]
Form: Entry with minimum IC50 (choose one): P / Q Your choice should be expressed through its label.
Q
(Q: 27.9 nM, P: 45.6 nM)
